The measured values listed here are drawn from patent US20050065140A1.

biological target: [^3H]paroxetine binding (serotonin reuptake), cerebral cortex membrane preparation (Rattus norvegicus); construct: 790 μl of the cerebral cortex membrane preparation (150 μg/tube in terms of protein); from tissue; host or cells: rat cerebral cortex membrane preparation; experiment: Screening test using [^3H]paroxetine binding (Test Example 1); settings: [^3H]paroxetine 0.15 nM, test concentration not given
Sequence (P31652 whole entry): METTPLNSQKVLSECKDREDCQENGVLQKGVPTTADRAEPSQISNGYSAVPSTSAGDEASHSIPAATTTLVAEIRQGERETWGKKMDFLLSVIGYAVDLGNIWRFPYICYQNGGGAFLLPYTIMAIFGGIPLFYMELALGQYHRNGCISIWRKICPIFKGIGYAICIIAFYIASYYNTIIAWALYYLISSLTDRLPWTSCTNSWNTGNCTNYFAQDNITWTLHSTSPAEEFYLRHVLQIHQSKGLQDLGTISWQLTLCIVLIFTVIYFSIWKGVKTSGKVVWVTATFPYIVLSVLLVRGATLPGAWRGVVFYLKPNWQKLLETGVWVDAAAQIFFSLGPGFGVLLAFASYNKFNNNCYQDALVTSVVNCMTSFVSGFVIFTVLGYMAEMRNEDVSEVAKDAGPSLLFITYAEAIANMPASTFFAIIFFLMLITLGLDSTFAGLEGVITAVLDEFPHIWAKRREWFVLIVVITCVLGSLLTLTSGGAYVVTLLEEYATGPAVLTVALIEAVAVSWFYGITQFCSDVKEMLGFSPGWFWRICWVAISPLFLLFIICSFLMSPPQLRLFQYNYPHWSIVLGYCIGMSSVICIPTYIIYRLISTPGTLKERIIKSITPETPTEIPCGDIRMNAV
readout label: Rate of inhibition of [^3H]paroxetine binding (%)
Kindly answer with a numeric value in %, unit omitted.

[[record]]
compound = "COc1ccc(Br)c(CC2CCN(CC[C@H]3CC[C@H](NC(=O)C(F)(F)F)CC3)CC2)c1.Cl [Example 48]"
numeric_result = 99

[[record]]
compound = "COc1ccc(Br)c(CC2CCN(CCC3(CCO)CCCCC3)CC2)c1.Cl [Example 60]"
numeric_result = 91

[[record]]
compound = "CCN([C@H]1CC[C@H](CCCN2CCC(Cc3cc(OC(C)C)ccc3Br)CC2)CC1)S(C)(=O)=O.Cl [Example 46]"
numeric_result = 100

[[record]]
compound = "COc1ccc(Br)c(CC2CCN(CC3CNc4ccccc4C3)CC2)c1.Cl.Cl (stereo not shown) [Example 70]"
numeric_result = 84


# lookup: Rate of inhibition of [^3H]paroxetine binding (%) of COc1ccc(N2CC(CN3CCC(Cc4cc(OC)ccc4Br)CC3)OC2=O)cc1.Cl (stereo not shown) [Example 72]
99

# get_value(readout='Rate of inhibition of [^3H]paroxetine binding (%)', item= CCN(CCOC)[C@H]1CC[C@H](CCN2CCC(Cc3cc(OC)ccc3Br)CC2)CC1.Cl.Cl [Example 58] )
100

Which Rate of inhibition of [^3H]paroxetine binding (%) reading was recorded for the compound COc1ccc(Br)c(CC2CCN(CCC3CCNCC3)CC2)c1.Cl.Cl [Example 1] ?
81
